test.system: T1, His-tagged mouse B7-H3 (mouse, UniProt Q8VE98 29-244, limits assumed)
T1 construct: Bought His-tagged protein coated on the ELISA plate; also called mu B7-H3; murine B7-H3
T1 sequence (looked up): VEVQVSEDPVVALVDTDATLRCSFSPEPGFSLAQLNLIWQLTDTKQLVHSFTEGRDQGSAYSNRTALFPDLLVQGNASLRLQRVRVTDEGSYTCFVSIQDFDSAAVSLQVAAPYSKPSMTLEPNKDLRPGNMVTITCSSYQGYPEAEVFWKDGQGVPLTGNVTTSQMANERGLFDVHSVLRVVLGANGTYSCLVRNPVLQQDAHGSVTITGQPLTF
assay: ELISA, coated His-tagged antigen, scFv-Fc 1 ug/ml
Measured ELISA OD450 @ 1 ug/ml of individual entries
endpoint: ELISA OD450 @ 1 ug/ml (OD450)

binder="40511p1.1.G3 (scFv, V domains shown, Tested as scFv-Fc (Expi293 supernatant)) VH: DVQLVESGGGVVRPGESLTLSCAASGFTINSYAVSWVRQAPGEGLEWVSGISGSGVRYYADSVKGRFTISRDDSNNTLYLQMNSLRAEDTAVYYCARSNKVTWNNFFDYWGLGTLVTVSS VL: EVVLTQSPGTLTLSPGERATLSCRASRSILTSLAWYQQKPGQAPRLLIYNTVTRATGIPARFSGSGSGTEFTLTINSLQSEDFAVYYCQQYYDWPPLTFGGGTKVEIK" endpoint="ELISA OD450 @ 1 ug/ml" measure_unit=OD450 reported=1.71
binder="40633p1.2.A10 (scFv, V domains shown, Tested as scFv-Fc (Expi293 supernatant)) VH: EVQLLESGGGLVQPGGSLRLSCAASGFTVSYYGMSWVRQAPGKGLEWVSVIKQDGSEEYYADSVKGRFTISRDNSKNTLYLQMNSLRAEDTAVYYCARHWNDYSNGMNVWGQGTTVTVSS VL: QSVLTQPPSASGTPGQRVTISCSGSTSNVGDRYVYWYQQLPGTAPKLLIYLDDQRPSGVPDRFSGSKSGTSASLAISGLQSEDEADYYCASWDASLNGWVFGGGTKLTVL" endpoint="ELISA OD450 @ 1 ug/ml" measure_unit=OD450 reported=2.02
binder="40579p1.C2 (scFv, V domains shown, Tested as scFv-Fc (Expi293 supernatant)) VH: EVQLLESGGDLVQPGGSLRLSCAASGFNFSSYWMSWVRQAPGKGLEWVSGISISYGGNAYYADSVKGRFTVSRDNSKNTLYLQMNSLRAEDTAVYYCGRDRSPYQYRSMDVWGQGTTVTVSS VL: EIVLTQSPATLSVSPGERATFSCRASQTIGNKLAWYQQKPGQAPRLLIFSASTRATDIPDRFSGSGSGTDFTLTISSLQSEDFAVYYCQQYNNWPPLTFGGGTKVEIK" endpoint="ELISA OD450 @ 1 ug/ml" measure_unit=OD450 reported=1.82
